- MEASUREMENT_NOTES: Absorbance peak (Flex Station II)
- Assay type: physicochemical
- CONDITION_SUMMARY: gel and liquid
Can you tell me Absorbance peak (nm) for the items I'm about to list?

For O=C1C[C@@](O)(C(=O)O)C(C(=O)O)O1 (stereo partly shown) , what is its reported Absorbance peak (nm)?
300 nm (gel and

Proceed to CC1=C(/C=C/C(C)=C/C=C/C(C)=C/C=C/C=C(C)/C=C/C=C(C)/C=C/C2=C(C)C[C@@H](O)CC2(C)C)C(C)(C)C[C@H](O)C1
465 nm (gel and

Proceed to CCCCCCCCC[C@H](O)CC(=O)CCc1ccc(O)c(OC)c1
300 nm (gel and

Proceed to C/C=C1/[C@H](O[C@@H]2O[C@H](CO)[C@@H](O)[C@H](O)[C@H]2O)OC=C(C(=O)OC)[C@H]1CC(=O)OCCc1ccc(O)c(O)c1
325 nm (gel and
